Where do these numbers come from? They come from ChEMBL document CHEMBL1649277.

- Test system: Human alphaherpesvirus 2
- test method notes: Antiviral activity against HSV2 12247 harboring TK C337Y mutant gene infected in HFF after 3 days by plaque reduction assay
- Format: functional, organism-based
- test context: Human alphaherpesvirus 2, 12247, 72 h
recorded metric: EC50 (µM)
Write the answer as a number in µM, unit excluded.

Lab note: compound Nc1nc2c(ncn2COCCO)c(=O)[nH]1 [ACYCLOVIR] tested on Human alphaherpesvirus 2; recorded EC50 was 9.6

====

- test method notes: Cytotoxicity against human BCBL1 cells after 3 days by MTS assay
- Type: cell-based
recorded metric: CC50 at 72 h (µM)
Dear colleague, please return just the value in µM, with no unit written.

Form field CC50 at 72 h, entry O=c1[nH]c(=O)n([C@H]2C[C@H](O)[C@@H](CO)S2)cc1I : 14

====

- test method notes: Cytotoxicity against human HSB2 cells after 3 days by MTS assay
- Type: cell-based, CCRF-HSB-2
recorded metric: CC50 at 72 h

CC50 at 72 h reported for this compound O=c1[nH]c(=O)n([C@H]2C[C@H](O)[C@@H](CO)S2)cc1I : > 100 µM

====

- test method notes: Cytotoxicity against HFF after 3 days by MTS assay
- Type: cell-based
- test context: human, HFF cells
Let's look at some molecules and their measured CC50 at 72 h.

[
  {
    "record smiles": "O=c1[nH]c(=O)n([C@H]2C[C@H](O)[C@@H](CO)S2)cc1I",
    "value observed": "> 70 µM"
  },
  {
    "record smiles": "O=c1[nH]c(=O)n([C@H]2C[C@H](O)[C@@H](CO)S2)cc1Br",
    "value observed": "> 100 µM"
  },
  {
    "record smiles": "Nc1ccn(C[C@@H](CO)OCP(=O)(O)O)c(=O)n1.O.O",
    "value observed": "> 100 µM"
  }
]

// CC50 at 72 h lookup, molecule = Cc1cn([C@H]2C[C@H](O)[C@@H](CO)S2)c(=O)[nH]c1=O , result: > 100 µM

Entry under test: Nc1nc2c(ncn2COCCO)c(=O)[nH]1 . Its CC50 at 72 h was > 444 µM

Data point: Nc1nc(=O)n([C@H]2C[C@H](O)[C@@H](CO)S2)cc1Br ; CC50 at 72 h = > 100 µM

Measured CC50 at 72 h, O=c1[nH]c(=O)n([C@H]2C[C@H](O)[C@@H](CO)S2)cc1C(F)(F)F : > 100 µM

Nc1ccn([C@@H]2S[C@H](CO)[C@@H](O)[C@@H]2O)c(=O)n1 has a reported CC50 at 72 h of > 100 µM

====

- System: Human alphaherpesvirus 3
- test method notes: Antiviral activity against VZV Ellan infected in HFF after 8 to 10 days by plaque reduction assay
- Format: functional, organism-based
- test context: Human alphaherpesvirus 3, Ellan
recorded metric: EC50 (nM)
Please reply with the bare figure in nM and do not write the unit itself.

Please fill in: EC50 reported for O=c1[nH]c(=O)n([C@H]2C[C@H](O)[C@@H](CO)S2)cc1I = 2000

====

- System: Human alphaherpesvirus 1
- test method notes: Antiviral activity against HSV1 PAA5 harboring polymerase R842S mutant gene infected in HFF after 3 days by plaque reduction assay
- Format: functional, organism-based
- test context: Human alphaherpesvirus 1, PAA5, 72 h
EC50 reference
Expressed in µM, but write only the number.

[
  {
    "record smiles": "Nc1nc2c(ncn2COCCO)c(=O)[nH]1",
    "test system": "Human alphaherpesvirus 1",
    "EC50 / µM": 0.011
  }
]

Continue with the compound presented below.
Short answer for O=c1[nH]c(=O)n([C@H]2C[C@H](O)[C@@H](CO)S2)cc1I : EC50 was 28

====

- test method notes: Selectivity index, ratio of CC50 for HFF to EC50 for HSV2 MS infected in HFF
recorded metric: Ratio CC50/EC50

For this molecule ( Cc1cn([C@H]2C[C@H](O)[C@@H](CO)S2)c(=O)[nH]c1=O ), measured Ratio CC50/EC50 is > 500

====

- test method notes: Selectivity index, ratio of CC50 for human HSB2 cells to EC50 for Human herpesvirus 6 GS infected in human HSB2 cells
- Type: toxicity, cell-based
- test context: read-out: Ratio CC50/EC50
recorded metric: selectivity ratio
// keep it numeric: no unit symbol after the value

Looking up O=c1[nH]c(=O)n([C@H]2C[C@H](O)[C@@H](CO)S2)cc1I , I found its selectivity ratio recorded as 1

====

- test method notes: Selectivity index, ratio of CC50 for human Akata cells to EC50 for Epstein-Barr virus infected in human Akata cells
- Assay type: toxicity, cell-based
- test context: read-out: Ratio CC50/EC50
recorded metric: selectivity ratio

Lab note: O=c1[nH]c(=O)n([C@H]2C[C@H](O)[C@@H](CO)S2)cc1I gave selectivity ratio of < 4.3

====

- test method notes: Cytotoxicity against human Akata cells after 3 days by MTS assay
- Type: cell-based
recorded metric: CC50 at 72 h

Kindly note the recorded CC50 at 72 h for O=c1[nH]c(=O)n([C@H]2C[C@H](O)[C@@H](CO)S2)cc1I , which is 680 nM

====

- System: Human alphaherpesvirus 2
- test method notes: Antiviral activity against HSV2 AG-3 harboring TK Q105P mutant gene infected in HFF after 3 days by plaque reduction assay
- Assay type: functional, organism-based
- test context: Human alphaherpesvirus 2, AG-3, 72 h
recorded metric: pEC50
In textbook form, pEC50 equals minus log to base ten of the concentration in mol/L.

Entry Nc1nc2c(ncn2COCCO)c(=O)[nH]1 [ACYCLOVIR] — recorded pEC50 = 5.33

====

- test method notes: Selectivity index, ratio of CC50 for human BCBL1 cells to EC50 for Human herpesvirus 8 infected in human BCBL1 cells
- Type: toxicity, cell-based
- test context: read-out: Ratio CC50/EC50
recorded metric: selectivity ratio

The compound identified as O=c1[nH]c(=O)n([C@H]2C[C@H](O)[C@@H](CO)S2)cc1I registered its selectivity ratio at < 3.6

====

- test method notes: Selectivity index, ratio of CC50 for HFF to EC50 for HSV2 MS infected in HFF
Recorded measurements of Ratio CC50/EC50, one per entry

Worked cases, answers included:
[
  {
    "molecule": "O=c1[nH]c(=O)n([C@H]2C[C@H](O)[C@@H](CO)S2)cc1Br",
    "Ratio CC50/EC50": "> 21"
  },
  {
    "molecule": "O=c1[nH]c(=O)n([C@H]2C[C@H](O)[C@@H](CO)S2)cc1I",
    "Ratio CC50/EC50": "> 140"
  },
  {
    "molecule": "Nc1ccn([C@@H]2S[C@H](CO)[C@@H](O)[C@@H]2O)c(=O)n1 [THIARABINE]",
    "Ratio CC50/EC50": "> 110"
  },
  {
    "molecule": "O=c1[nH]c(=O)n([C@H]2C[C@H](O)[C@@H](CO)S2)cc1C(F)(F)F",
    "Ratio CC50/EC50": "> 330"
  }
]

Okay, now this molecule:
For this molecule ( Nc1nc(=O)n([C@H]2C[C@H](O)[C@@H](CO)S2)cc1Br ), measured Ratio CC50/EC50 is > 6.7
